target-desc: Glycogen synthase kinase-3 alpha (Homo sapiens)
method: concentration-response blocking of human GSK3A – biochemical, luminescence, cell-free homogeneous, retest, dose response (AID 463203)
test-conditions: GSK-3 alpha enzyme, ADP-Glo luminescence, 60 min
The source made the active and inactive calls.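 Rule for the calls: active = more than half of replicate measurements showing over 20% loss of kinase signal relative to plate controls; inconclusive = some but at most half of replicates over 20% loss; inactive = no replicate over 20% signal loss.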
Please answer using one outcome listed in YES for active, NO for inactive

What classification did `Nc1c(C(=O)Nc2ccc3c(c2)OCCO3)nnn1Cc1ccccc1Cl` end up with in this test?
NO

Call for entry COC(=O)C1CSc2[nH]c(=O)sc2C1c1ccc(O)c(OC)c1 (configuration not stated) :
NO

Assay result, entry `O=C(c1ccco1)N(Cc1ccc([N+](=O)[O-])cc1)c1ccc(Cl)cc1` — outcome?
NO

Short answer needed: outcome of this test for `C/C(=N\NC(=O)CSc1nc(C)[nH]c1[N+](=O)[O-])c1ccc(F)cc1` ?
NO

What is the recorded call for this molecule in the test? `COc1ccccc1NC(=O)CSc1nnc(-c2ccccc2)o1`
NO

Please indicate how the test categorized Cc1nc(SCC(=O)N(CC(C)C)C2CCS(=O)(=O)C2)c2ccccc2n1 (configuration not stated) .
NO

Give the logged outcome of this assay for the following molecule: Cc1ccc(C2C(C#N)=C(N)Oc3nc(-c4ccccc4)[nH]c32)o1 (configuration not stated)
NO

State the result this test recorded for `COc1ccc(-c2cc(C(=O)N3CCN(c4ccccc4OC)CC3)no2)cc1OC` .
NO

Hi, do you know how COC(=O)C1=C(C(=O)OC)C(c2cc(Cl)ccc2O)c2sc(=O)[nH]c2S1 (configuration not stated) came out in this test?
YES

State the result this test recorded for `O=C(CSCc1ccccn1)Nc1ccccc1` .
NO

# lookup: test call for O=C1CCCC2=C1C(c1ccc(O)cc1)c1c(ccc3ccccc13)N2 (configuration not stated)
NO

# fetch the recorded call for `CCn1c(C)nc2cc(-c3nc4n(n3)Cc3ccccc3-4)ccc21` here
YES

Look up the recorded call for `N/C(=N\OC(=O)c1ccc2ccccc2c1)c1cccc([N+](=O)[O-])c1` in this test.
NO

Assay outcome for CC1(C)CC(=O)C2=C(C1)Nc1[nH]n(-c3ccccc3)c(=O)c1C2c1ccc2c(c1)OCO2 (configuration not stated) : what was it?
NO

Any idea what this test logged for `O=C(COC(=O)c1cc(S(=O)(=O)N2CCOCC2)ccc1F)Nc1ccc(Cl)cn1` ?
YES

What did this assay record as the result for `O=C1N=C(C=c2ccc(=Cc3[nH]c(=O)[nH]c3O)cc2)C(=O)N1` ?
YES

// outcome(item) with item = `Cc1cccc(-c2nnc3n2N=C(c2ccc(Br)cc2)CS3)c1`
NO

Just curious, what result did `Cc1onc(-c2c(F)cccc2Cl)c1C(=O)OCC(=O)Nc1c(C)n(C)n(-c2ccccc2)c1=O` get here?
NO

Test call for this molecule, please: `CCCC(=O)Nc1nn(CC)c2nc3ccc(C)cc3cc12`
NO

Any idea what this test logged for Cn1cnnc1Sc1ccc(CN2CCN(C3CCCC3)C(CCO)C2)o1 (configuration not stated) ?
NO

Assay result, entry `N#Cc1c(Nc2ccccc2)c(C=O)c[nH]c1=O` — outcome?
NO

What did this assay record as the result for `O=C(CSc1ccc(F)cc1)Nc1ccc2c(c1)C(=O)NC2=O` ?
YES

Dear colleague, could you share the recorded outcome for `Nc1nonc1-n1nnc(C(=O)N/N=C/c2ccccc2Cl)c1-c1ccccc1` when you have a moment?
NO

Can you look up the reported call for CCOC(=O)c1c(NC(=O)CN2C(=O)NC3(CCCCC3C)C2=O)sc(C)c1CC (configuration not stated) for me?
NO

Tell me the assay call for `COc1ccc(-n2c(O)c(C(C)=NCCCn3ccnc3)c(=O)[nH]c2=O)cc1` please.
YES

Check the results log: what was the call for `NNC(=O)/C(=N/Nc1ccccc1)S(=O)(=O)c1ccc(Cl)cc1` ?
NO

Could you kindly confirm the outcome this assay logged for `Cc1cc(C(=O)CN(Cc2ccc(F)cc2)S(=O)(=O)c2ccc3c(c2)OCCO3)c(C)n1C` ?
NO

Hi, sorry to bother you, what did the test record for `CCSc1ccccc1C(=O)Nc1cccnc1` ?
NO

Assay outcome for `O=C(CSc1ncccc1-c1nc2ccccc2[nH]1)NCc1ccco1` : what was it?
NO

What was the test verdict on `CCOC(=O)N1CCc2c(sc3nc(SC(C)C)n(N)c(=O)c23)C1` ?
NO

Entry `NC(=O)c1cc([N+](=O)[O-])ccc1NCc1cccc([N+](=O)[O-])c1` : call = ?
YES

Outcome? `COc1cccc(/C=N/NC(=O)C(=O)N2CCCC2)c1OC`
NO

====

target-desc: Glycogen synthase kinase-3 alpha (Homo sapiens) (UniProt P49840)
Sequence (P49840 whole entry, looked up): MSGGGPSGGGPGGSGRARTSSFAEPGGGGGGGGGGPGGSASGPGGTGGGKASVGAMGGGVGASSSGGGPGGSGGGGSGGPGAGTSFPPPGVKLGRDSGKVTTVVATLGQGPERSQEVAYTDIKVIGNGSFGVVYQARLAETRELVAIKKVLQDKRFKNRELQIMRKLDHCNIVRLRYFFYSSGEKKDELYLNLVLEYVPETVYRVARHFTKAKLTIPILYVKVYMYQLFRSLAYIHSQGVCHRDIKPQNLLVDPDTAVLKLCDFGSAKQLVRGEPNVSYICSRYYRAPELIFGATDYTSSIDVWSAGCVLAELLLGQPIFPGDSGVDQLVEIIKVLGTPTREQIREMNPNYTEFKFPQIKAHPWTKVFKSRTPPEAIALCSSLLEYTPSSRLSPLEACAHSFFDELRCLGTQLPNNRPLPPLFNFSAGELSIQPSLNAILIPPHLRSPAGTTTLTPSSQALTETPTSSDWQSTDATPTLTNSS
method: concentration-response blocking of human GSK3A – biochemical, luminescence, cell-free homogeneous, retest, dose response (AID 463203)
test-conditions: GSK-3 alpha enzyme, ADP-Glo luminescence, 60 min
Activity calls are given as the source filed them.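 The calls were made as follows: active = more than half of replicate measurements showing over 20% loss of kinase signal relative to plate controls; inconclusive = some but at most half of replicates over 20% loss; inactive = no replicate over 20% signal loss.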
Choose one outcome from this list and give only that: active, inactive

Tell me the assay call for `CC(=O)Nc1cccc(-c2csc(Nc3ccc(C)cn3)n2)c1` please.
inactive

Please let me know the test result on file for COC(=O)c1c(NC(=O)CN2C(=O)NC3(CCC(C(C)(C)C)CC3)C2=O)sc2c1CCCCC2 (stereo not drawn) .
inactive

Record request — test call for `O=[N+]([O-])c1cccc(-c2ccn[nH]2)c1`
inactive

Dear colleague, could you share the recorded outcome for `O=C(COC(=O)c1cccc(S(=O)(=O)N2CCOCC2)c1)Nc1ccc(Cl)cn1` when you have a moment?
active

GET /call?item= N#CC1=C2SCN(c3ccc(F)cc3)CN2C(=O)CC1c1cccc(F)c1 (stereo not drawn) returns the recorded outcome of this test.
active

// param item: `c1ccc2sc(-c3ccc4c(c3)OCO4)nc2c1` ; yields the recorded call
inactive

Please share the test call associated with `CCNc1nc(NCC)nc(C(=O)OCCO)n1` .
inactive

Any idea what this test logged for `Cc1noc(C)c1COc1ccc2ccc(=O)oc2c1` ?
inactive

Recorded test outcome, item `Cc1n[nH]c(=S)n1/N=C/c1ccc(-c2ccccc2[N+](=O)[O-])o1`
active

Would you mind telling me which call this test gave `CCOC(=O)c1c2c(n(C)c1C)C(=O)C(=O)c1ccc(Br)cc1-2` ?
active

For `COc1ccc(Br)cc1C(=O)Nc1cccc(NC(=O)c2ccco2)c1` , what call appears in the results of this test?
inactive

What did this assay record as the result for `CC(C)(C)NC(=O)CSc1ncccc1-c1nc2ccccc2[nH]1` ?
inactive

What did this assay record as the result for `CCOC(=O)C1CCN(c2c(C(=O)c3ccccc3)cnc3ccc(CC)cc23)CC1` ?
inactive

Any idea what this test logged for `COc1ccccc1Nc1nc(C)cc(C)n1` ?
inactive

Hi, sorry to bother you, what did the test record for `O=C(Nc1ccccc1-c1nnc(SCc2ccc(Cl)cc2Cl)o1)c1ccccc1` ?
inactive

Just curious, what result did `COc1cc2sc(C)nc2c2ccccc12` get here?
inactive

Record lookup: outcome of this test for `Cc1sc(NC(=O)CSc2nc(N)cc(N)n2)c(C#N)c1C` ?
inactive

Which result was noted for this molecule in the test: `CN(Cc1nc2c(s1)CCCC2)C(=O)CCc1nnc(-c2ccccc2)o1`
inactive

Recorded test outcome, item `COc1ccc(CCNC(=O)CSc2nc3[nH]ncc3c(=O)n2-c2ccccc2OC)cc1OC`
active

Entry `Fc1cccc(Nc2nc(-c3ccncc3)nc3ccccc23)c1` : call = ?
inactive

State the result this test recorded for `Cc1nc(NC(=O)c2ccc(Br)o2)sc1C` .
inactive

Hi team, can someone confirm the assay call for CCCC(NS(=O)(=O)c1ccc(OC)cc1)C(=O)O (stereo not drawn) ?
inactive

# outcome recorded in this test, key = `O=C(Nc1ccccc1-c1nnc(SCc2ccccc2Cl)o1)c1ccccc1`
inactive

Recorded test call requested for `CC(=O)c1cc(-c2ccc(F)cc2)n(CCC(=O)Nc2cccnc2)c1C`
inactive

Hi, sorry to bother you, what did the test record for `CC1(C)CC(=O)C=C(c2cccc(O)c2)C1` ?
inactive

Name the outcome recorded for `Cc1nnc(SCC(=O)Nc2sc3c(c2C(=O)c2ccccc2)CCCC3)s1` in the assay.
inactive

Short answer needed: outcome of this test for `COc1ccc(N=c2oc3c(OC)cccc3cc2C(=O)NCc2ccco2)c(OC)c1` ?
inactive

Outcome logged for `O=C(NC1=NCCS1)c1ccc(Cl)cc1` in this assay:
inactive

Given `Cc1cc(C)c2[nH]c(O)c(N=Nc3ccc(C(=O)O)cc3)c2c1` , state the outcome it received in this test.
inactive

Assay result, entry `O/N=C1/CC/C(=N\O)c2nn(-c3ccccc3)nc21` — outcome?
active

Answer briefly: the call reported for `COc1ccc2nc(SCc3nc(N)nc(Nc4ccccc4)n3)[nH]c2c1` in this assay.
active

Identify the outcome logged in this assay for the molecule shown: `COc1ccc(C(=O)C[n+]2cccc(Br)c2)cc1`
inactive

Per the assay record, what outcome was assigned to `CCOC(=O)N1CCC(N2CCN(S(=O)(=O)c3ccc(Cl)cc3)CC2)CC1` ?
inactive
